The reported measurements were obtained from paper PMC9024597.

RUN_DESCRIPTION: Pharmacokinetics in rats after a single intravenous administration
CONDITIONS: rat, plasma, iv, 4.8 mg/kg, t1/2, rats, i.v. 4.8 mg kg^−1, non-compartment model, mean, n = 5
MEASURE: half-life (min)
Response body: numeric value in min, unit text excluded.

Data request: Give reported half-life value for CN(C)CCN1CC2c3ccccc3CCN2c2nc3ccccc3nc21 (stereo not shown)
Data returned: 693

###

RUN_DESCRIPTION: Pharmacokinetics in rats after a single intravenous administration
CONDITIONS: rat, plasma, iv, 4.8 mg kg^−1, half-life, rats
MEASURE: half-life

Data request: Give reported half-life value for CN(C)CCN1CC2c3ccccc3CCN2c2nc3ccccc3nc21 (stereo not shown) [TNBG-5602]
Data returned: ~12 h

###

RUN_DESCRIPTION: In vivo metabolites in rat urine and feces by UPLC-Q-TOF-MS/MS
CONDITIONS: rats, TNBG-5602 i.v.
MEASURE: rank of metabolite in the feces (major/minor)

* CN(C=O)CCN1CC2c3ccccc3CCN2c2nc3ccccc3nc21 (stereo not shown) | minor
* CNCCN1CC2c3ccccc3CCN2c2nc3ccccc3nc21 (stereo not shown) | major
* CN1CCN2CC3c4ccccc4CCN3C3=Nc4ccccc4NC312 (stereo not shown) | minor
* c1ccc2c(c1)CCN1c3nc4ccccc4nc3N(CCN3COC3)CC21 (stereo not shown) | minor

###

RUN_DESCRIPTION: Pharmacokinetics in rats after a single intravenous administration
CONDITIONS: rat, plasma, iv, 4.8 mg/kg
MEASURE: MRT last (h)
Response body: numeric value in h, unit text excluded.

Data request: Give reported MRT last value for CN(C)CCN1CC2c3ccccc3CCN2c2nc3ccccc3nc21 (stereo not shown) [TNBG-5602]
Data returned: 7.13

###

RUN_DESCRIPTION: Pharmacokinetics in rats after a single intravenous administration
CONDITIONS: rat, plasma, iv, 4.8 mg/kg, CLt (total body clearance), rats, i.v. 4.8 mg kg^−1, non-compartment model, mean, n = 5
MEASURE: clearance (mL/min)
Response body: numeric value in mL/min, unit text excluded.

Data request: Give reported clearance value for CN(C)CCN1CC2c3ccccc3CCN2c2nc3ccccc3nc21 (stereo not shown) [TNBG-5602]
Data returned: 19

###

RUN_DESCRIPTION: Pharmacokinetics in rats after a single intravenous administration
CONDITIONS: rat, plasma, iv, 4.8 mg/kg, t1/2β (elimination half-life), rats, i.v. 4.8 mg kg^−1, two-compartment model, mean, n = 5
Procedure: Sample separation was carried out on a CSH C18 Column (3.0 × 75 mm, 1.7 μm). The mobile phase consisted of Eluent A (0.1% aqueous formic acid) and Eluent B (acetonitrile: methanol, 80:20, v/v) at a flow rate of 0.4 mL min^−1. […] The column temperature was set to 35 °C. The injection volume was 5 μL. […]
MEASURE: half-life

Data request: Give reported half-life value for CN(C)CCN1CC2c3ccccc3CCN2c2nc3ccccc3nc21 (stereo not shown) [TNBG-5602]
Data returned: 11.8 h

###

ASSAY_SYSTEM: CYP2C9 (Homo sapiens)
Sequence (P11712 whole entry): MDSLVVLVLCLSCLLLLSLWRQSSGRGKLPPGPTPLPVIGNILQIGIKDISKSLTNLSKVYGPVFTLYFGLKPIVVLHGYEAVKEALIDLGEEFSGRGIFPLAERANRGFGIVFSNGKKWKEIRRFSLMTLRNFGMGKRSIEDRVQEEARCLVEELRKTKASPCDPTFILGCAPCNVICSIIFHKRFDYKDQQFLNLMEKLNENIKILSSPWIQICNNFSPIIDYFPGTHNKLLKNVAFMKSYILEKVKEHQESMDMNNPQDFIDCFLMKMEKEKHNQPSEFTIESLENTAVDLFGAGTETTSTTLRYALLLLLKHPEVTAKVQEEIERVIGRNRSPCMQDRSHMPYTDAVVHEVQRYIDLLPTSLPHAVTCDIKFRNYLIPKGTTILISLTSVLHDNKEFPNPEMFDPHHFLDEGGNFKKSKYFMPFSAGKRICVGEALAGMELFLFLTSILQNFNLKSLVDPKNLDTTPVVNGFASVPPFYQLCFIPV
RUN_DESCRIPTION: IC50 assessment using recombinant human CYPs (probe tolbutamide)
CONDITIONS: recombinant CYP 0.025 μM, tolbutamide 0.05 mg mL^−1, 37 °C, 30 min, n = 3; read-out: IC50 against CYP2C9
Protocol: Figure 12 The inhibition curves for TNBG-5602 against cytochrome enzymes (mean ± SD, n = 3). TNBG-5602 (final concentrations of 0, 0.01, 0.1, 1.0, 10.0, and 100 μM) was incubated with recombinant cytochrome P450s (final concentration 0.025 μM) and the specific probe substates (final concentration 0.05 mg mL^−1) with NADPH to initiate the metabolic reaction. […] The IC50 values were calculated using the GraphPad Prism statistical software (Version 8) by nonlinear regression analysis. […]
MEASURE: IC50 (µM)
Response body: numeric value in µM, unit text excluded.

Data request: Give reported IC50 value for CN(C)CCN1CC2c3ccccc3CCN2c2nc3ccccc3nc21 (stereo not shown)
Data returned: 9.63
